A collection of variants and their measured protein stability index
B1: USP39 (parent)
chain: FVEKNPTIVNFPITNVDLREYLSE

variants of: B1; experiment: protein stability index of a GFP-peptide fusion (GPS, HEK-293T) (PSI 1-6); higher = more stable; conditions: c terminus: a fixed tail appended;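 further: lentivirally expressed fusions sorted by FACS into six bins by GFP to DsRed ratio, PSI derived from sequencing read proportions per bin multiplied by bin number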
Keep the answer to the number alone.

Sample answers from the record:
• FVEKNPTIVNFPITNVDIREYLSE [L18I] = 2.53
• FVEKNPTIVNMPITNVDLREYLSE [F11M] = 1.78
• FNEKNPTIVNFPITNVDLREYLSE [V2N] = 3.68
• FVEKNPTIVNFPATNVDLREYLSE [I13A] = 2.23
• FVDKNPTIVNFPITNVDLREYLSE [E3D] = 1.95

Turning now to a further variant:
Which protein stability index is listed for FVEKNPTIVNFPITIVDLREYLSE [N15I] ? 2.26
